Biological target: membrane receptors of human breast cancer cells (Homo sapiens)
Construct: endogenous in cells; host or cells: human breast cancer cells (membranes)
Assay: Binding affinity for membrane receptors of human breast cancer cells using 125I-labeled [D-Trp6]LHRH
Conditions: Table 2, high affinity binding sites
Measured endpoint: Binding affinity, Ka1, for membrane receptors of cancer cells (nM⁻¹)

>>> print(df.to_string())
                                  substance  observed_value
0  Ac-D-Nal(2)-D-Phe(4Cl)-D-Pal(3)-Ser-Arg-D-Lys[(Cu^++)(SAL)2 (A2 bu-Eac)]-Leu-Arg-Pro-D-Ala-NH2 [XXVIII]           0.192
1  Ac-D-Nal(2)-D-Phe(4Cl)-D-Trp-Ser-Arg-D-Lys[(Cu^++)(SAL)2 (DL-A2 pr)]-Leu-Arg-Pro-D-Ala-NH2 [XII]           4.951
2  Ac-D-Nal(2)-D-Phe(4Cl)-D-Pal(3)-Ser-Arg-D-Lys[(Ni^++)(SAL)2 (DL-A2 pr)]-Leu-Arg-Pro-D-Ala-NH2 [XIII]           0.878
3  Ac-D-Nal(2)-D-Phe(4Cl)-D-Trp-Ser-Arg-D-Lys[(Ni^++)(SAL)2 (DL-A2 pr)]-Leu-Arg-Pro-D-Ala-NH2 [Example XV]           4.418
4  Ac-D-Nal(2)-D-Phe(4Cl)-D-Pal(3)-Ser-Arg-D-Lys[(PtCl2)-A2 bu-Eac)]-Leu-Arg-Pro-D-Ala-NH2 [XXVII]           2.152
5  Ac-D-Nal(2)-D-Phe(4Cl)-D-Trp-Ser-Arg-D-Lys[(Cu^++)(POLP)2 (DL-A2 pr)]-Leu-Arg-Pro-D-Ala-NH2 [Example XXII]           1.337

###

Target: membrane receptors of human breast cancer cells (Homo sapiens, UniProt P30968)
Construct: endogenous in cells; host or cells: human breast cancer cells (membranes)
Sequence (P30968 whole entry): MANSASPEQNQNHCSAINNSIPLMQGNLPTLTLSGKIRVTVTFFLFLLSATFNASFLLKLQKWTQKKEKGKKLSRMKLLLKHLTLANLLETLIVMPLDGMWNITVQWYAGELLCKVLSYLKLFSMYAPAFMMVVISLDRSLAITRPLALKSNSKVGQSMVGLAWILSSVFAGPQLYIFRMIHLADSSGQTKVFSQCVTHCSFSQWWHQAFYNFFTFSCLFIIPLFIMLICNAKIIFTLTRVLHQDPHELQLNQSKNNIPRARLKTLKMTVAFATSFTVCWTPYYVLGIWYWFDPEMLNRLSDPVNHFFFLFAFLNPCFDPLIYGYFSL
Experiment: Binding affinity for membrane receptors of human breast cancer cells using 125I-labeled [D-Trp6]LHRH
Details: Table 2, high affinity binding sites
Measured endpoint: Binding affinity, Ka1, for membrane receptors of cancer cells

In [3]: df
Out[3]:
                                  substance  observed_value
0  Ac-D-Nal(2)-D-Phe(4Cl)-D-Pal(3)-Ser-Arg-D-Lys[(Cu^++)(POLP)2 (DL-A2 pr)]-Leu-Arg-Pro-D-Ala-NH2 [Example XX]      2.436 nM⁻¹
1  Ac-D-Nal(2)-D-Phe(4Cl)-D-Pal(3)-Ser-Arg-D-Lys[(Cu^++)(POL)2 (DL-A2 pr)]-Leu-Arg-Pro-D-Ala-NH2 [XXIV]      2.628 nM⁻¹
2  Ac-D-Nal(2)-D-Phe(4 Cl)-D-Trp-Ser-Arg-D-Lys[(Cu^++)(POL)2 (DL-A2 pr)]-Leu-Arg-Pro-D-Ala-NH2 [Example XXIII]      3.408 nM⁻¹

###

Target: membrane receptors of human breast cancer cells (Homo sapiens, UniProt P30968)
Construct: endogenous in cells; host or cells: human breast cancer cells (membranes)
Test: Binding affinity for membrane receptors of human breast cancer cells using 125I-labeled [D-Trp6]LHRH
Conditions: Table 1, high affinity binding sites
Measured endpoint: Binding affinity, Ka1, for membrane receptors of cancer cells (nM⁻¹)

>>> df
                                  substance  observed_value
0  pGlu-His-Trp-Ser-Tyr-D-Lys[(Cu^++)(SAL)2 (DL-A2 bu)]-Leu-Arg-Pro-Gly-NH2 [XIV]           1.628
1  pGlu-His-Trp-Ser-Tyr-D-Lys[(PtCl2)(DL-A2 pr)]-Leu-Arg-Pro-Gly-NH2 [Example III]           1.743
2  pGlu-His-Trp-Ser-Tyr-D-Lys[(Cu^++)(FUR)2 (DL-A2 pr)]-Leu-Arg-Pro-Gly-NH2 [XVII]           0.536
3  pGlu-His-Trp-Ser-Tyr-D-Lys[(Cu^++)(POL)2 (DL-A2 bu)]-Leu-Arg-Pro-Gly-NH2 [XXV]           3.141

###

Target: membrane receptors of pituitary of male rats (Rattus norvegicus)
Construct: from tissue; host or cells: pituitary of male rats (membranes)
Test: Binding affinity for membrane receptors of rat pituitary using 125I-labeled [D-Trp6]LHRH
Details: Table 1, high affinity binding sites
Quick reference for Binding affinity, Ka1, for membrane receptors of pituitary among some substances
Measured endpoint: Binding affinity, Ka1, for membrane receptors of pituitary (nM⁻¹)

                                  substance                           target_of_assay  observed_value
0  pGlu-His-Trp-Ser-Tyr-D-Lys[(Cu^++)(CISAL)2 (DL-A2 pr)]-Leu-Arg-Pro-Gly-NH2 [Example IX]  membrane receptors of pituitary of male rats (Rattus norvegicus)           8.625
1  pGlu-His-Trp-Ser-Tyr-D-Lys[(Cu^++)(SAL)2 (DL-A2 bu)]-Leu-Arg-Pro-Gly-NH2 [XIV]  membrane receptors of pituitary of male rats (Rattus norvegicus)           5.589
2  pGlu-His-Trp-Ser-Tyr-D-Lys[(Cu^++)(FUR)2 (DL-A2 pr)]-Leu-Arg-Pro-Gly-NH2 [XVII]  membrane receptors of pituitary of male rats (Rattus norvegicus)           1.770
3  pGlu-His-Trp-Ser-Tyr-D-Lys[Cu^++)(POLP)2 (A2 pr)]-Leu-Arg-Pro-Gly-NH2 [XIX]  membrane receptors of pituitary of male rats (Rattus norvegicus)           8.676
4  pGlu-His-Trp-Ser-Tyr-D-Lys[(Ni^++)(CISAL)2 (DL-A2 pr)]-Leu-Arg-Pro-Gly-NH2 [Example X]  membrane receptors of pituitary of male rats (Rattus norvegicus)           4.513
5  pGlu-His-Trp-Ser-Tyr-D-Lys[(Cu^++)(POL)2 (DL-A2 bu)]-Leu-Arg-Pro-Gly-NH2 [XXV]  membrane receptors of pituitary of male rats (Rattus norvegicus)           6.405
6  pGlu-His-Trp-Ser-Tyr-D-Lys[(Cu^++)(PEN)2 (A2 pr)]-Leu-Arg-Pro-Gly-NH2 [Example XXI]  membrane receptors of pituitary of male rats (Rattus norvegicus)          10.989

###

Tested on: dispersed rat pituitary cell superfusion system
Assay: LH release in dispersed rat pituitary cell superfusion system (agonistic activity)
Assay type: cell-based
Conditions: Table 1; peptide infused 3 min, LH released compared to 3 nM LHRH
Measured endpoint: Hormonal activity, LH responses rel. to LHRH (= 1)

>>> df
                                  substance  observed_value
0  pGlu-His-Trp-Ser-Tyr-D-Lys[(PtCl2)(DL-A2 pr)]-Leu-Arg-Pro-Gly-NH2 [Example III]              55
1  pGlu-His-Trp-Ser-Tyr-D-Lys[Cu^++)(POL)2 (DL-A2 pr)]-Leu-Arg-Pro-Gly-NH2 [XVIII]               9
2  pGlu-His-Trp-Ser-Tyr-D-Lys[(Cu^++)(POLP)2 (DL-A2 bu)]-Leu-Arg-Pro-Gly-NH2 [Example XVI]             1.5
3  pGlu-His-Trp-Ser-Tyr-D-Lys[(Cu^++)(FUR)2 (DL-A2 pr)]-Leu-Arg-Pro-Gly-NH2 [XVII]              10
4  pGlu-His-Trp-Ser-Tyr-D-Lys[Cu^++)(POLP)2 (A2 pr)]-Leu-Arg-Pro-Gly-NH2 [XIX]             0.3
5  pGlu-His-Trp-Ser-Tyr-D-Lys[(Ni^++)(CISAL)2 (DL-A2 pr)]-Leu-Arg-Pro-Gly-NH2 [Example X]               4
6  pGlu-His-Trp-Ser-Tyr-D-Lys[(Cu^++)(PEN)2 (A2 pr)]-Leu-Arg-Pro-Gly-NH2 [Example XXI]            10.6

###

Target: membrane receptors of pituitary of male rats (Rattus norvegicus, UniProt P30969)
Construct: from tissue; host or cells: pituitary of male rats (membranes)
Sequence (P30969 whole entry): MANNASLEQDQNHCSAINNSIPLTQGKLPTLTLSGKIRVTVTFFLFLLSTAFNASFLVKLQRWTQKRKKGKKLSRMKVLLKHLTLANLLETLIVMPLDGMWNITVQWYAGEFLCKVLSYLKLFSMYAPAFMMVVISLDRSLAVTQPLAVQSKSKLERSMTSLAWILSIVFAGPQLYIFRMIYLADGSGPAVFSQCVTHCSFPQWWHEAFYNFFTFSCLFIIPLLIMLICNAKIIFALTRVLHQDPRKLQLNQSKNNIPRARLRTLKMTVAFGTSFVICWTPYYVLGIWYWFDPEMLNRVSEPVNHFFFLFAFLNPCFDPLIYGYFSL
Assay: Binding affinity for membrane receptors of rat pituitary using 125I-labeled [D-Trp6]LHRH
Conditions: Table 1, high affinity binding sites
Quick reference for Binding affinity, Ka1, for membrane receptors of pituitary among some substances
Measured endpoint: Binding affinity, Ka1, for membrane receptors of pituitary (nM⁻¹)

>>> print(df.to_string())
                                  substance                           target_of_assay  observed_value
0  pGlu-His-Trp-Ser-Tyr-D-Lys[(Cu^++)(POLP)2 (DL-A2 bu)]-Leu-Arg-Pro-Gly-NH2 [Example XVI]  membrane receptors of pituitary of male rats (Rattus norvegicus, UniProt P30969)           9.751
1  pGlu-His-Trp-Ser-Tyr-D-Lys[(Cu^++)(SAL)2 (A2 pr)]-Leu-Arg-Pro-Gly-NH2 [Example VII]  membrane receptors of pituitary of male rats (Rattus norvegicus, UniProt P30969)           7.968
2  pGlu-His-Trp-Ser-Tyr-D-Lys[(PtCl2)(DL-A2 pr)]-Leu-Arg-Pro-Gly-NH2 [Example III]  membrane receptors of pituitary of male rats (Rattus norvegicus, UniProt P30969)           3.285
3  pGlu-His-Trp-Ser-Tyr-D-Lys[Cu^++)(POL)2 (DL-A2 pr)]-Leu-Arg-Pro-Gly-NH2 [XVIII]  membrane receptors of pituitary of male rats (Rattus norvegicus, UniProt P30969)           5.817

The measured values listed here are drawn from patent US5258492A.
